Provenance of the data: paper PMC5618418

Assay: Pharmacokinetics after intravenous injection (plasma, bile, urine)
Assay type: in vivo, rat
Settings: male, Sprague-Dawley, plasma; rat, IV 10 mg/kg; read-out: Vss
MEASURED_ENDPOINT: Vd

Input CCCCCCCCCCCCCC[C@@H]1OC[C@H](N)[C@@H]1O [Jaspine B] . Output Vd: 21.2 L/kg

---

Assay: Pharmacokinetics after oral administration with or without taurocholate in control and bile-depleted rats
Format: in vivo
Conditions: male, SD, rat, plasma, 30 mg/kg, oral 30 mg/kg, bile depletion + TC 60 mg/kg
MEASURED_ENDPOINT: MRT
// unit must come after the numeric part

Input CCCCCCCCCCCCCC[C@@H]1OC[C@H](N)[C@@H]1O [Jaspine B] . Output MRT: 4.9 h
